The values you see were collected from patent US9340577B2.

# targetOrTestSystem: DRB1*1501 (Homo sapiens, UniProt P01903+P01911)
# procedureSummary: biochemical
# Type: binding
reportedProperty: IC50 (µM)
Quick note: give the figure in µM, leave out the unit.

Quick note, IC50 for CC[C@H](C)[C@H](NC(=O)[C@H](Cc1c[nH]cn1)NC(=O)[C@H](C)NC(=O)[C@H](Cc1ccc(O)cc1)NC(=O)[C@H](CC(C)C)NC(=O)[C@@H](NC(=O)[C@H](Cc1ccccc1)NC(=O)[C@@H]1CCCN1C(=O)[C@H](CCC(N)=O)NC(=O)[C@@H](NC(=O)[C@H](CC(C)C)NC(=O)[C@@H](NC(=O)[C@H](CCCCN)NC(=O)[C@@H](N)Cc1ccccc1)[C@@H](C)O)[C@@H](C)CC)[C@@H](C)CC)C(=O)N[C@@H](CCC(N)=O)C(=O)O [Peptide 89.0025] landed at 0.02

Quick note, IC50 for CC[C@H](C)[C@H](NC(=O)[C@H](Cc1c[nH]c2ccccc12)NC(=O)[C@H](CCC(=O)O)NC(=O)[C@@H]1CCCN1)C(=O)N[C@@H](CCC(N)=O)C(=O)N[C@@H](CCCNC(=N)N)C(=O)N[C@@H](CCC(N)=O)C(=O)N[C@H](C(=O)N[C@H](C(=O)N[C@@H](CC(C)C)C(=O)N[C@@H](CCC(N)=O)C(=O)N[C@@H](Cc1c[nH]cn1)C(=O)N[C@@H](CO)C(=O)N[C@@H](Cc1ccccc1)C(=O)N[C@@H](CC(N)=O)C(=O)O)C(C)C)[C@@H](C)O [Peptide 89.0011] landed at 8.86
